EC50 listing for selected binders.
target: T1, human claudin 18A2 (CLD18A2) (human); test: flow cytometry, scFv_Fc on HEK293 cells stably transfected with human CLD18A2
T1 construct: also called CLD18.2; CLDN18A2
T1 sequence (chain, as listed by the source limits assumed): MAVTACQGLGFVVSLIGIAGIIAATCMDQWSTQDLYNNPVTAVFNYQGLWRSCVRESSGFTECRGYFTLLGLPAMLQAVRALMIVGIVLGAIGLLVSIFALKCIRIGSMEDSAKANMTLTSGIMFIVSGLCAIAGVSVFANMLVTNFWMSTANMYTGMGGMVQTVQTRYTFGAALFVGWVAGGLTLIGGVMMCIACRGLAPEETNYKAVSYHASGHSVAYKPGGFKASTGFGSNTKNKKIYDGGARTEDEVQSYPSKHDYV
metric: EC50 (nM)

- 2B1-S54A scFv_Fc fusion antibody (Fc fusion, not shown: human IgG1 Fc portion) scFv: QVQLQQSGAELARPGASVKMSCKASGYTFTSYTMHWVKQRPGQGLEWIGYINPASGYTNYNQKFKDKATLTADKSSSTAYMQLSSLTSEDSAVYYCARIYYGNSFAYWGQGTTVTVSSGGGGSGGGGSGGGGSDIVMTQSPSSLTVTAGEKVTMSCKSSQSLLNSGNQKNYLTWYQQKPGQPPKLLIYWASTRESGVPDRFTGSGSGTDFTLTISSVQAEDLAVYYCQNDYSYPLTFGAGTKLELKR: 3.85
- hu8E5 scFv fused to human IgG1 Fc portion (Fc fusion, also called hu8E5-S62A; not shown: human IgG1 Fc portion) scFv: QVQLQESGPGLVKPSQTLSLTCTVSGGSISSGYNWHWIRQPPGKGLEWIGYIHYTGSTNYNPALRSRVTISVDTSKNQFSLKLSSVTAADTAVYYCARIYNGNSFPYWGQGTTVTVSSGGGGSGGGGSGGGGSDIVMTQSPDSLAVSLGERATINCKSSQSLFNSGNQKNYLTWYQQKPGQPPKLLIYWASTRESGVPDRFSGSGSGTDFTLTISSLQAEDVAVYYCQNAYSFPYTFGGGTKLEIKR: 107
- 2B1 scFv_Fc fusion antibody (scFv of 2B1 fused to human IgG1 Fc portion) (Fc fusion, also called murine anti-2B1 ScFv; not shown: human IgG1 Fc portion) scFv: QVQLQQSGAELARPGASVKMSCKASGYTFTSYTMHWVKQRPGQGLEWIGYINPSSGYTNYNQKFKDKATLTADKSSSTAYMQLSSLTSEDSAVYYCARIYYGNSFAYWGQGTTVTVSSGGGGSGGGGSGGGGSDIVMTQSPSSLTVTAGEKVTMSCKSSQSLLNSGNQKNYLTWYQQKPGQPPKLLIYWASTRESGVPDRFTGSGSGTDFTLTISSVQAEDLAVYYCQNDYSYPLTFGAGTKLELKR: 3.56
- 8E5 scFv_Fc fusion antibody (scFv of 8E5 fused to human IgG1 Fc portion) (Fc fusion, also called parent antibody 8E5; not shown: human IgG1 Fc portion) scFv: DVQLQESGPDLVKPSQSLSLTCTVTGYSITSGYNWHWIRQFPGNKMEWMGYIHYTGSTNYNPSLRSRISITRDTSKNQFFLQLNSVTTDDTATYYCTRIYNGNSFPYWGQGTSVTVSSGGGGSGGGGSGGGGSDIVMTQSPSSLTVTPGEKVTMTCKSSQSLFNSGNQKNYLTWYQQRPGQPPKMLIYWASTRESGVPDRFTGSGSGTDFTLTISSVQAEDLAVFYCQNAYSFPYTFGGGTKLEIKR: 49.2
